System: K4 kissing-loop RNA reporter;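 further: bound reporter read as fluorescence of individual clusters on recovered sequencing chips by microscopy, with normalized cluster intensities fitted with a binding model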
Test: apparent KD of K4 kissing-loop reporter; higher = weaker reporter binding
Conditions: Eterna round: R107; input ligand: FMN 200 uM
Everything with apparent KD of K4 kissing-loop reporter lower than 300 nM is not met; everything else, including exactly 300 nM, is met.

Q: Decide: apparent KD of K4 kissing-loop reporter of GCGCGUGUUAAAGGAUAUAGCAGGUGAUACAAGAAAGUGAGUGAUGUUUAUGUAGAUGAUGAUAUGUUAGAAGGUUAACACGCGC [abcdefghijklmnopqr] >= 300 nM?
Result: met

Q: Again, but for GGCAGUGAUGUUGCCAGUGGCAGAUUGGAAGGAGCGUGGUGAGACACAGGUAGGUCGCUAAUUGAAGUUGCUGUCACUAAAAUGC [whbob_Ex_Arginine_A_2t131]
Result: not met

Q: How about this sequence: UGAUACCAGACUGAUACCAGCCAGUGAUGUUGGCUAAAACCAAAAGCUGGCAAAGCCAGCGGCCCUUGGCAGCAGUCUGGUAUCU [TheoBX 1 #SwitchBubble #StaticStem]
Result: met

Q: What do you get for ACGUGCACCAGUGAUGUUGGAAAAUAUGAAGGAGCGGGUGAAAACCCAGGUAGGUCGCAUAAUAGCACGAGCCACGAAAGUGGCA ?
Result: not met

Q: Now the sequence GUGGCACGAAAGUGCCACGCAUCCUCUCCCUAGGAUAUCUGGAAACAGAGAAGGAGGUCAUGAGUGAUGUUCAUCCAGAGGAUGC
Result: not met

###

Test system: MS2 coat protein
Test: apparent KD of MS2 coat protein; higher = weaker reporter binding
Settings: Eterna round: R107; input ligand: theophylline 20 uM
I'd be grateful if you could share measured apparent KD of MS2 coat protein for these entries.
Lab book: enter the figure in nM, no units written.

Q: What does the data say about its apparent KD of MS2 coat protein? Entry: CUAUAAGUACCGGUCCUCAGAUCCUCAUGACGAGGACCGGUACGGCCGCCACUCGAAACAUGAGGAUCACCCAUGUAAUAAUAAU [Brourdmod06]
Result: 38.5

Q: Repeat with CCCGUAAAGGCGGCCGCCACUGUAUGACAUGAGGAUCACCCAUGUAGGGAAAAUGCGAUGGUCGUCAGGACCGGGCCUCUGGCAU [theeternabot_exclusion_MS2_Trp_B_5]
Result: 29.3

Q: Would you mind doing CGUGGUUGAGAUGGGCCUCUGAUAAGUCUGCGAGGACCGGUACGGCCGCCACUCGAGGACAUGAGGAUCACCCAUGUACUUCGCG [Vequar] as well?
Result: 139

Q: Queued: AUACAUGAGGAUCACCCAUGUUAUAGUGAAGGAGCGACAUUUAGGUCAGGUAGGUCGCACUAUUGAAUUAUUAUCCUUAUUUCUU [JR_ExcArginiA_Sub020]
Result: 22

Q: Cool, now GGUGGCGGGACUGAUACCAGCCACCACCGAUAGACCACAUGAGGAUCACCCAUGUUGGGUGGCCCUUGGCAGCAGUCUUGCGGCU [#1 Same State - Theophylline B Attempt #14 (HarryS)]
Result: 523

Q: Can you handle AUCAUCAGUUCGGCCGCCACUGUUUGGCACAGUUGUAUCGUACAUGAGGAUCACCCAUGUCACCACAGGACCGGGAACGCCGUCG [theeternabot_exclusion_MS2_Trp_B_1] next?
Result: 21.6

All figures here come from the supplement of paper PMC9170038.
